# assayedSystem: PRMT5 (Homo sapiens, UniProt O14744)
# Construct: purchased Viva (custom protein)
# Sequence (O14744 whole entry): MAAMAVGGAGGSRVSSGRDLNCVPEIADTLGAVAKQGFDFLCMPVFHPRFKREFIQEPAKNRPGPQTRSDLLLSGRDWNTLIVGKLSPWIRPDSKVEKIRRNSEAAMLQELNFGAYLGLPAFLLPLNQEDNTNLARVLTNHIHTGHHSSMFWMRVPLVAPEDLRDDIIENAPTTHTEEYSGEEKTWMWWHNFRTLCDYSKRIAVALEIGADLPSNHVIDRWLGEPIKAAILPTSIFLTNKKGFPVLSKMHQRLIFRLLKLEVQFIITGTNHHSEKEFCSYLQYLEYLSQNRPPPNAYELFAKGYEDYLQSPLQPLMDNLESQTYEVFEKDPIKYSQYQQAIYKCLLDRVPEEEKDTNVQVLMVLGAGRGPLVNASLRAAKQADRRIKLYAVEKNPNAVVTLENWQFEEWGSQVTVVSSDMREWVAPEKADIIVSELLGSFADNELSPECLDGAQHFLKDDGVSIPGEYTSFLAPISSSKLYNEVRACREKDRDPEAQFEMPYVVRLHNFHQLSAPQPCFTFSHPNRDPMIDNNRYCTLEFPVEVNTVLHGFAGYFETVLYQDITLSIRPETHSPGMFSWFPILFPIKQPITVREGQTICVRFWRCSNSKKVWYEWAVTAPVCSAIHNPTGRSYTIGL
# Sequence (Q9BQA1 whole entry partner): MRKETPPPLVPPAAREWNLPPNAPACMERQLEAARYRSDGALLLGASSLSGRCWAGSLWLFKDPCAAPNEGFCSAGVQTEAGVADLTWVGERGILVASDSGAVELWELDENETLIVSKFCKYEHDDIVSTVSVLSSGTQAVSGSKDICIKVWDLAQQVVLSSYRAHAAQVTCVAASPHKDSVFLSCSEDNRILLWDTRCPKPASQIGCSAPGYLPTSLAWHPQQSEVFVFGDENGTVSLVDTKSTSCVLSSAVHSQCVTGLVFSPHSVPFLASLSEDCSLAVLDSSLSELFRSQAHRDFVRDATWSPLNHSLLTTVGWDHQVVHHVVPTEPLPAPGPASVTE
# assayDetails: PRMT5 biochemical IC50 assay with SAM as cofactor
# conditionDetails: PRMT5, SAM as cofactor; read-out: SAM IC50
pIC50: −log10 of the molar value.
The entries below are paired with their reported pIC50.
measurementKind: pIC50

compound="C[C@@H]1CC[C@@H](c2cncc(Cl)c2)N(C(=O)C(=O)Nc2cncc(C(N)=O)c2)C1 (racemic) [Compound 791]" assayresult="6.30 to 7.30"
compound="Cc1cc(NC(=O)C(=O)N2C[C@@H](C)CC[C@@H]2c2ccc3sc(C4COC4)nc3c2)cnc1N [Compound 1266]" assayresult="6.30 to 7.30"
compound="COc1ncc(NC(=O)C(=O)N2C[C@H](C)CC[C@H]2c2ccc3sc(C(F)(F)F)nc3c2)cc1C(N)=O (single isomer, unassigned) [Compound 1030]" assayresult="< 6.30"
compound="CNC(=O)c1ccc([C@H]2CC[C@H](C)CN2C(=O)C(=O)Nc2cncc(C(N)=O)c2)s1 (single isomer, unassigned) [Compound 839]" assayresult="< 6.30"
compound="CCc1cc(NC(=O)C(=O)N2C[C@@H](C)CC[C@@H]2c2ccc(N3CCN(C)[C@H](C)C3)nc2)cnc1N (single isomer, unassigned) [Compound 1263]" assayresult="6.30 to 7.30"
compound="C[C@@H]1C[C@H](c2ccccc2)N(C(=O)C(=O)Nc2cncc(C(N)=O)c2)C[C@H]1C (racemic) [Compound 231]" assayresult="6.30 to 7.30"
compound="C[C@@H]1C[C@H](c2ccccc2)N(C(=O)C(=O)Nc2cncc(C(N)=O)c2)C[C@@H]1C (racemic) [Compound 229]" assayresult="< 6.30"
compound="NC(=O)c1cncc(NC(=O)C(=O)N2CCCCC2c2ccccc2)c1N (stereo not shown) [Compound 119]" assayresult="6.30 to 7.30"
compound="CC1(C)CCC[C@@H]2CN(C(=O)C(=O)Nc3cncc(C(N)=O)c3)CC[C@H]21 (single isomer, unassigned) [Compound 193]" assayresult="6.30 to 7.30"
compound="Cc1cc(NC(=O)C(=O)N2C[C@H](C)CC[C@H]2C(C)C)cnc1N (racemic) [Compound 165]" assayresult="6.30 to 7.30"
compound="Cc1ccc([C@@H]2CC[C@H](C)CN2C(=O)C(=O)Nc2cncc(C(N)=O)c2)nc1 (racemic) [Compound 880]" assayresult="< 6.30"
compound="CCc1cc(NC(=O)C(=O)N2C[C@@H](C)CC[C@@H]2c2ccc(-c3nccs3)cc2)cnc1N (single isomer, unassigned) [Compound 822]" assayresult="< 6.30"
compound="C[C@H]1CC[C@H](c2ccc3[nH]ncc3c2F)N(C(=O)C(=O)Nc2cncc(C(N)=O)c2)C1 (single isomer, unassigned) [Compound 637]" assayresult="< 6.30"
